Where these numbers come from: patent US20260200926A1

Overview of recorded Emax for various compounds
Target: Human TREM2 (Homo sapiens, UniProt Q9NZC2)
Construct: expressed in transfected cells
Sequence (Q9NZC2 19-230): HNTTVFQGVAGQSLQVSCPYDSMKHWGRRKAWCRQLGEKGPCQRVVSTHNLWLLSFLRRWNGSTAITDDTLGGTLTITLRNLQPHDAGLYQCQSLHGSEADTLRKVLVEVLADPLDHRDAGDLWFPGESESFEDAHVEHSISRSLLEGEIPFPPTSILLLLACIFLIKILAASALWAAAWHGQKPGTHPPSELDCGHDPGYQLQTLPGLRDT
Sequence (O43914 22-113 partner): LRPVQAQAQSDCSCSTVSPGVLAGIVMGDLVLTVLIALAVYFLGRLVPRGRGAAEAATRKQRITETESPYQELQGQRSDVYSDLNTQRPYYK
Assay: Human TREM2 activity: cellular phosphorylation of Syk (AlphaLISA SureFire Ultra p-SYK) in HEK293/DAP12+TREM2 stable cell line
Format: cell-based
Settings: HEK293; maximal response relative to reference agonist example 1B (remaining examples); read-out: Emax
Text: Human TREM2, in vitro Measurement of Triggering Receptor Expressed on Myeloid Cells 2 activity using cellular phosphorylation of Spleen Tyrosine Kinase (“Syk”) Assay […] TREM2 signaling through DAP12 was monitored in the HEK293/DAP12+TREM2 stable cell line by measuring the phosphorylation levels of the Syk kinase using the commercially available AlphaLISA SureFire Ultra p-SYK (Tyr525/526) Assay Kit (PerkinElmer #ALSU-PSYK), based on the Perkin Elmer AlphaScreen/AlphaLISA technology. […]

These recorded examples may help you get a feel for the data.
- COMPOUND: "Cc1cc([C@H]2CN(c3nc(-c4ccc(F)cc4F)c4nc(C(F)(F)F)n(C)c(=O)c4n3)CCO2)ccn1 (single isomer, unassigned) [Example 154B]"
  TEST RESULT: "75 to 110%"
- COMPOUND: "Cc1nc2c(-c3cc(F)c(F)cc3F)nc(N3C[C@H](c4cnn(C)c4)OC4(CCC4)C3)cc2c(=O)n1C (single isomer, unassigned) [Example 152B]"
  TEST RESULT: "< 75%"
- COMPOUND: "Cc1nc2c(-c3ccc(Cl)cc3F)nc([C@@H]3C[C@H](c4cnn(C)c4)OC(C)(C)C3)nc2c(=O)n1C (single isomer, unassigned) [Example 111B]"
  TEST RESULT: "< 75%"
- COMPOUND: "Cc1nc2c(-c3ccc(F)cc3F)nc(N3C[C@@H](c4cnn(C)c4)OC(F)(F)C3)nc2c(=O)n1C (single isomer, unassigned) [Example 156A]"
  TEST RESULT: "75 to 110%"
- COMPOUND: "Cc1nc2c(-c3ccc(C(F)(F)F)cc3F)nc([C@@H]3CCO[C@H](c4cnn(C5CC5)c4)C3)cc2c(=O)n1C (single isomer, unassigned) [Example 153A]"
  TEST RESULT: "> 110%"

Request: Query for Human TREM2 (Homo sapiens, UniProt Q9NZC2): what Emax does the record show for Cc1nc2c(-c3ccc(Cl)cc3F)cc(N3CCOC(c4cnn(C)c4)C3)cc2c(=O)n1C (stereo not drawn) ?
Response: < 75%
